For each record, write down the corresponding log RLU compound.
tested on: 48-hour salivary biofilm; experiment: Biofilm disruption screening assay: 48-hour salivary biofilm on polystyrene peg plate, ATP bioluminescence of bacteria remaining; assay type: cell-based; settings: unsaturated long chain aldehyde 0.05% (w/v) in water/ethanol/Pluronic F-127; treated twenty minutes; N=8
One number for each entry, in log RLU.

Past entries and their recorded results:
CCCCC/C=C\CCC=O [cis-4-decenal]: 4.59
CCCCC/C=C/C=O [trans-2-octenal]: 5.26

Record log RLU compound for all entries; do not skip any.
1. CCCCCCC/C=C/C=O [trans-2-decenal]
2. CC/C=C\CCCCCC=O [cis-7-decenal]
3. CCCC/C=C/C=O [trans-2-heptenal]
4. CCCCCCCC/C=C/C=O [trans-2-undecenal]
5. CC/C=C\CCCCC=O [cis-6-nonenal]

*A*
1: 4.63; 2: 5.25; 3: 5.52; 4: 4.49; 5: 4.84
